# Experiment Description: Cytotoxicity against Vero cells by MTT assay
# Format: cell-based
# Condition Set: chlorocebus sabaeus
CC50 values for the molecules below.
Recorded Endpoint: CC50

# Molecule, Recorded Endpoint, Result
rows = [
    ("O=C(Nc1ccc(S(=O)(=O)N2CCCC2)cc1)c1ccc(CCl)cc1", "CC50", "11 µM"),
    ("Cn1nc(C(F)(F)F)cc1C(=O)Cc1ccc(S(=O)(=O)N2CCCC2)cc1", "CC50", "> 300 µM"),
    ("O=C(Nc1ccc(S(=O)(=O)N2CCCC2)cc1)c1ccc(Br)cc1", "CC50", "59 µM"),
    ("O=C(Nc1ccc(S(=O)(=O)N2CCCC2)cc1)c1nc2ccccc2s1", "CC50", "> 300 µM"),
    ("O=C(Nc1ccc(S(=O)(=O)N2CCCC2)cc1)c1cccs1", "CC50", "> 300 µM"),
    ("COc1ccc(Br)c(C(=O)Nc2ccc(S(=O)(=O)N3CCCC3)cc2)c1", "CC50", "> 300 µM"),
    ("Cn1nc(C(F)(F)F)cc1C(=O)Nc1ccc(S(=O)(=O)N2CCC[C@H]2C(=O)OCc2ccccc2)cc1", "CC50", "100 µM"),
    ("Cc1cc(C(=O)Nc2ccc(S(=O)(=O)N3CCCC3)cc2)n(C)n1", "CC50", "> 300 µM"),
    ("Cn1nc(C(F)(F)F)cc1C(=O)Nc1ccc(S(=O)(=O)N2CCCCC2C(=O)O)cc1 (stereo unspecified)", "CC50", "> 300 µM"),
    ("Cn1nc(C(F)(F)F)cc1C(=O)Nc1ccc(S(=O)(=O)N2CCCCC2)cc1", "CC50", "> 300 µM"),
    ("O=C(Nc1ccc(S(=O)(=O)N2CCCC2)cc1)c1ccc(C(F)(F)F)cc1[N+](=O)[O-]", "CC50", "> 300 µM"),
    ("Nc1ccc(C(=O)Nc2ccc(S(=O)(=O)N3CCCC3)cc2)c(Cl)c1", "CC50", "> 300 µM"),
    ("O=C(Nc1ccc(S(=O)(=O)N2CCCC2)cc1)c1cc(C(F)(F)F)ccc1F", "CC50", "76 µM"),
    ("O=C(Nc1ccc(S(=O)(=O)N2CCCC2)cc1)c1ccco1", "CC50", "> 300 µM"),
    ("O=C(Nc1ccc(S(=O)(=O)N2CCCC2)cc1)c1ccccc1C(F)(F)F", "CC50", "> 300 µM"),
    ("Cn1nc(C(C)(C)C)cc1C(=O)Nc1ccc(S(=O)(=O)N2CCCC2)cc1", "CC50", "140 µM"),
]

----------
# Experiment Description: Cytotoxicity against Vero cells by MTT assay
# Assay type: cell-based
# Condition Set: chlorocebus sabaeus

# Molecule, Unit Abbrev, Relation Symbol, CC50
rows = [
    ("O=C(Nc1ccc(S(=O)(=O)N2CCCC2)cc1)c1cc(C(F)(F)F)nn1Cc1ccccc1", "µM", "=", 37),
    ("Cn1nc(C(F)(F)F)cc1C(=O)Nc1ccc(S(=O)(=O)N2CCCC2)cc1OC(=O)c1cc(C(F)(F)F)nn1C", "µM", "=", 14),
    ("Cn1nc(C(F)(F)F)cc1C(=O)Nc1ccc(S(=O)(=O)N2CCCC2)cc1O", "µM", "=", 288),
    ("O=C(Nc1ccc(S(=O)(=O)N2CCCC2)cc1)c1cccc(C(F)(F)F)c1", "µM", ">", 300),
    ("Cn1nc(C(F)(F)F)cc1C(=O)Nc1ccc(S(=O)(=O)N2CCOCC2)cc1", "µM", ">", 300),
    ("Cc1nc(C(F)(F)F)ccc1C(=O)Nc1ccc(S(=O)(=O)N2CCCC2)cc1", "µM", ">", 300),
    ("Cn1nc(C(F)(F)F)cc1C(O)Cc1ccc(S(=O)(=O)N2CCCC2)cc1 (centres undefined)", "µM", ">", 300),
    ("Cn1nc(C(F)(F)F)cc1C(=O)Nc1ccc(S(=O)(=O)n2ccc3ccccc32)cc1", "µM", "=", 13),
    ("O=C(Nc1ccc(S(=O)(=O)N2CCCC2)cc1)c1ccc([N+](=O)[O-])cc1Cl", "µM", ">", 300),
]
